Molecular target: human cathepsin L (Homo sapiens, UniProt P07711)
Sequence (P07711 114-333): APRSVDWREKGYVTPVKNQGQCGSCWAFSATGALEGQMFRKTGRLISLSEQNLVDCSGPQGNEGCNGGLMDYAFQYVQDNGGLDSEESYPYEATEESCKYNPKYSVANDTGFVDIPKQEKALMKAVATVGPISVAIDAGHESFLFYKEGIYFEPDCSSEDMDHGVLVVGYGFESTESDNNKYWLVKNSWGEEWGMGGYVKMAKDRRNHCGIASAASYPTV
Test: Inhibitory activity against human cathepsin L (FRET, Z-Phe-Arg-AMC substrate)
Assay type: biochemical
Conditions: pH 5.5, 25° C.
Method: To determine the inhibitory activity of the compound against human cathepsin L (CatL): the enzyme level inhibitory activity against cathepsin L was determined by fluorescence resonance energy transfer (FRET) technique. […] The fluorescence parameters were determined by Tecan Infinite 200pro fluorescence spectrophotometer. The excitation wavelength and emission wavelength were 360 nm and 465 nm respectively, kept at 25° C., and the data were read after 30 min. […]
IC50 listing for selected molecules.

# molecule, IC50
records = [
    ("O=C(NC1CC1)C(=O)[C@H](C[C@@H]1CCCNC1=O)NC(=O)[C@H](CC1CCCCC1)NC(=O)c1cc2ccccc2o1 [Example A309]", "0.63 nM"),
    ("O=C(NCc1ccccc1)C(=O)[C@H](C[C@@H]1CCCNC1=O)NC(=O)[C@H](CC1CCCCC1)NC(=O)c1cc2ccccc2o1 [Example A13]", "1.36 nM"),
    ("O=C(NCc1ccccc1)C(=O)[C@H](C[C@@H]1CCCNC1=O)NC(=O)[C@H](Cc1cccc(F)c1)NC(=O)c1cc2ccccc2o1 [Example A284]", "0.45 nM"),
    ("O=C(NCc1ccccc1)C(=O)[C@H](C[C@@H]1CCCNC1=O)NC(=O)[C@H](CC1CCCCC1)NC(=O)c1cc2ccccc2[nH]1 [Example A5]", "0.45 nM"),
    ("O=C(NCc1ccccc1)C(=O)[C@H](C[C@@H]1CCCNC1=O)NC(=O)[C@H](Cc1ccc(F)cc1)NC(=O)c1cc2ccccc2o1 [Example A289]", "0.66 nM"),
    ("O=C(NC1CC1)C(=O)[C@H](C[C@@H]1CCCNC1=O)NC(=O)[C@H](Cc1ccc(F)cc1)NC(=O)c1cc2ccccc2o1 [Example A310]", "0.57 nM"),
    ("O=C(NCc1ccccc1)C(=O)[C@H](C[C@@H]1CCCNC1=O)NC(=O)[C@H](Cc1ccc(F)c(F)c1)NC(=O)c1cc2ccccc2o1 [Example A290]", "0.47 nM"),
]

----------
Assay: Toxicity test in SD rats with repeated intravenous administration
Format: in vivo
Settings: both sexes, SD, rat, in vivo, iv
measurement.type: MTD at 7 days

# smi, result
rows = [
    ("O=C(NCc1ccccc1)C(=O)[C@H](C[C@@H]1CCCNC1=O)NC(=O)[C@H](Cc1ccc(F)cc1)NC(=O)c1cc2ccccc2o1", "> 30 mg/kg/day"),
]

----------
Target: 2019-nCoV 3CL protease (Severe acute respiratory syndrome coronavirus 2, UniProt P0DTD1)
Construct: against 3CL protease of 2019 novel coronavirus (2019-nCoV 3CL^pro)
Experiment: Inhibitory activity against 3CL protease of 2019 novel coronavirus (FRET)
Assay type: biochemical
Conditions: FRET, 37° C., substrate 20 μM
Doc: threshold 9 µM (exclusive). Items with IC50 beneath it return Met; others return Not met.

# compound, category.label
rows = [
    ("CC(C)(C)NC(=O)C(=O)[C@H](C[C@@H]1CCCNC1=O)NC(=O)[C@H](CC1CCCCC1)NC(=O)c1cc2ccccc2[nH]1 [Example A6]", "Not met"),
    ("CC(C)NC(=O)CC[C@H](NC(=O)[C@H](CC1CCCCC1)NC(=O)c1cnc2ccccc2n1)C(=O)C(=O)NCc1ccccc1 [Example A236]", "Met"),
    ("COc1cc(OC)c2cc(C(=O)N[C@@H](Cc3ccccc3)C(=O)N[C@@H](C[C@@H]3CCNC3=O)C(=O)C(=O)NC(C)(C)C)[nH]c2c1 [Example A221]", "Met"),
    ("O=C(NCc1ccccc1)C(=O)[C@H](C[C@@H]1CCCNC1=O)NC(=O)[C@H](CC1CCCCC1)NC(=O)c1cc2ccccc2o1 [Example A13]", "Met"),
    ("CC(C)C[C@H](NC(=O)c1cc2ccccc2[nH]1)C(=O)N[C@@H](C[C@@H]1CCNC1=O)C(=O)C(=O)NCc1ccccc1 [Example A90]", "Not met"),
    ("O=C(NCc1ccccc1)C(=O)[C@H](C[C@@H]1CCNC1=O)NC(=O)[C@H](CC1CCCCC1)NC(=O)c1ccc2ccccc2n1 [Example A42]", "Met"),
    ("CC(C)NC(=O)CC[C@H](NC(=O)[C@H](Cc1ccccc1)NC(=O)c1cc2ccccc2[nH]1)C(=O)C(=O)NCC1CCCCC1 [Example A234]", "Not met"),
    ("O=C(NCc1ccccc1)C(=O)[C@H](C[C@@H]1CCNC1=O)NC(=O)[C@H](Cc1ccc(F)cc1)NC(=O)c1ccc2ccccc2n1 [Example A306]", "Met"),
    ("O=C(NCc1cc(F)cc(F)c1)C(=O)[C@H](C[C@@H]1CCCNC1=O)NC(=O)[C@H](CC1CCCCC1)NC(=O)c1cc2ccccc2o1 [Example A270]", "Met"),
    ("O=C(NC1CCCCC1)C(=O)[C@H](C[C@@H]1CCCNC1=O)NC(=O)[C@H](CC1CCCCC1)NC(=O)c1cc2cccc(Br)c2o1 [Example A257]", "Met"),
    ("CC(C)(C)NC(=O)C(=O)[C@H](C[C@@H]1CCNC1=O)NC(=O)[C@H](Cc1ccccc1)NC(=O)c1cc2ccccc2o1 [Example A291]", "Not met"),
]
